Listed here: items and their measured Tm (° C.) Na2HPO4/NaCl/EDTA.
Test system: 5′-d(AAAAAAAAAAAAAA)-3′
experiment.summary: Tm of duplex (spectrophotometric melting curves)
Assay type: binding
test.settings: vs 5′-d(AAAAAAAAAAAAAA)-3′; 10 mM Na2HPO4 pH 7.0, 100 mM NaCl, 0.1 mM EDTA
V = LNA monomer of structure V, bold; X = bicyclic LNA-type nucleotide of structure X in the publication's (LNA marked in bold); Y = bicyclic LNA-type thymidine monomer of structure Y; d = 2'-deoxy (DNA)
# value in °C; strip the unit string

Would you please look over these solved cases?
substance: 5′-d(TTTTTTTTTT)-3′ (SEQ ID NO: 95): almost fully modified LNA oligomer containing exclusively Z^T (52-56) (LNA Z^T monomers)
numeric.readout: 80

substance: 5′-d(TTTTTTTTTTTTTT)-3′ (SEQ ID NO: 138): partly modified poly-T with monomer Y (sugars from the 5' end d5 Y4 d5, backbone not given here)
numeric.readout: 32

substance: 5′-d(TTTTTTTTTTTTTT)-3′ (SEQ ID NO: 101): partly modified poly-T with monomer V (sugars from the 5' end d6 V2 d6, backbone not given here)
numeric.readout: 31

(Q) Tm (° C.) Na2HPO4/NaCl/EDTA lookup needed for 5′-d(TTTTTTTTTTTTTT)-3′ (SEQ ID NO: 98): partly modified poly-T with monomer V (sugars from the 5' end d7 V1 d6, backbone not given here) , thanks.
(A) 32

(Q) # query: Tm (° C.) Na2HPO4/NaCl/EDTA of entry 5′-d(TTTTTTTTTTTTTT)-3′ (SEQ ID NO: 123): poly-T containing X^T (sugars from the 5' end d6 X1 d1 X1 d5, backbone not given here)
(A) 9

(Q) Entry 5′-d(TTTTTTTTTTTTTT)-3′ (SEQ ID NO: 110): partly modified poly-T with monomer V (sugars from the 5' end ddddVdVdVdVddd, backbone not given here) : reported Tm (° C.) Na2HPO4/NaCl/EDTA = ?
(A) 23

Values were extracted from patent US8080644B2.
